Molecular target: Concanavalin-A (Canavalia ensiformis)
Assay: ConA small-molecule binders, primary screen, artefact control for SMM control protein annotation, biochemical, small-molecule microarray, Alexa647 label, 635 nm (AID 1127);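 also: z combines 667 nm emission intensity with signal-to-noise across three replicate slides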
Conditions: ConA-A647 binding fluorescence, higher = more signal
Use MET when the recorded composite z-score is no lower than 0.1; use NOT MET when it is lower.

Request: Is composite z-score for NC(N)=NCCCn1cc(CNC(=O)[C@@H](N)Cc2ccccc2)nn1 at or above 0.1?
Result: NOT MET

Request: Is composite z-score for COC(=O)[C@@]1(Cc2ccccc2)[C@H]2c3cc(C(=O)N(C)C)n(Cc4c(CO)[nH]cc(C)c4=O)c3C[C@H]2CN1C(=O)c1ccccc1 at or above 0.1?
Result: MET

Request: Is composite z-score for CN1C(=O)C2C=CC(C(O)c3ccc(F)cc3)N(Nc3ccccc3)C2C1=O (centres undefined) at or above 0.1?
Result: MET

Request: Is composite z-score for CC(C)C[C@@H]1NC(=O)[C@@H]2C[C@H](C(=O)NCCCCN(C)C)[C@H](c3cccc(OCCO)c3)N2C1=O at or above 0.1?
Result: MET

Request: Is composite z-score for O=C1OCC=C[C@H]2OC34C=CCN(Cn5nnc6ccccc65)C(=O)[C@H]3N(CCCO)C(=O)[C@@H]4[C@@H]12 (some centres undefined) at or above 0.1?
Result: NOT MET

Request: Is composite z-score for Cc1ccc(S[C@]2(C(=O)NCCCN(C)C)CC(=O)N(C3CCCCC3)[C@@H]2c2ccc(CO)cc2)cc1 at or above 0.1?
Result: NOT MET

Request: Is composite z-score for Cc1ccccc1C(O)C1C=CC2C(=O)N(C)C(=O)C2N1N(c1ccccc1)c1ccccc1 (centres undefined) at or above 0.1?
Result: NOT MET

Request: Is composite z-score for C=CCC(OC(C)=O)[C@@H]1[C@@H](N(Cc2cc3ccccc3o2)C(=O)Cc2ccc(F)cc2)c2cc(OCCCO)ccc2N1C(=O)c1ccc2ccccc2c1 (some centres undefined) at or above 0.1?
Result: NOT MET

Request: Is composite z-score for CCCCO[C@H]1C[C@H]2C(I)=C[C@@H]1C(=O)[C@]21CO1 at or above 0.1?
Result: MET

Request: Is composite z-score for COCCOC(=O)N1C(=O)[C@@]2(c3cc(C#CC4=CCCCC4)ccc31)[C@H](c1ccccc1OCCO)N1[C@H](c3ccccc3)[C@H](c3ccccc3)OC(=O)[C@H]1[C@@H]2C(=O)N1CCCCCCC1 at or above 0.1?
Result: MET

Request: Is composite z-score for C=CCOC(=O)[C@H]1[C@@H]2C(=O)O[C@@H](c3ccccc3)[C@@H](c3ccccc3)N2[C@@H](c2ccc(OCCOC(=O)[C@H]3C[C@H]4C(=O)N[C@@H](CCCCNC(C)=O)C(=O)N4[C@H]3c3ccc(O)cc3)cc2)[C@]12C(=O)Nc1ccccc12 at or above 0.1?
Result: MET

Request: Is composite z-score for NC(=O)NCC#Cc1ccc2c(c1)[C@]1(C(=O)N2)[C@H](C(=O)NC[C@H](O)c2ccccc2)[C@H]2C(=O)O[C@H](c3ccccc3)[C@H](c3ccccc3)N2[C@@H]1c1ccc(OCCO)cc1 at or above 0.1?
Result: MET

Request: Is composite z-score for Cc1ccc(S[C@]2(C(=O)NCC(F)(F)F)CC(=O)N(C3CCCCC3)[C@@H]2c2ccc(CO)cc2I)cc1 at or above 0.1?
Result: MET

Request: Is composite z-score for COc1ccc([Si](C)(C)[C@@H]2[C@@H](CC(=O)N(CCO)Cc3ccccc3)O[C@]3(C(=O)N(c4ccccc4)c4ccccc43)[C@H]2C)cc1 at or above 0.1?
Result: MET

----------
Assay: small-molecule microarray binders of probe aNog, primary screen, biochemical, biotinylated probe, 635/667 nm fluorescence (AID 1115);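 also: probe is biotinylated aNog protein used at 0.15 µg/mL for 1 h at 4 C; z-score combines 667 nm fluorescence of each spot with its signal to noise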
Conditions: higher = more signal
The class of a record is decided solely by its measured composite z-score; consult low = under -0.1, middle = from -0.1 up to 0.9, high = 0.9 and over

Request: Textbook exercise: identify the category of the compound given here, O=C1OCC=C[C@H]2OC34C=CCN(Cc5ccccc5)C(=O)[C@H]3N(CCCCCCO)C(=O)[C@@H]4[C@@H]12 (stereo not given in full) , according to its measured value.
Result: low

Request: Textbook exercise: identify the category of the compound given here, CN(C)CCCNC(=O)[C@@]1(c2ccc([N+](=O)[O-])cc2)CC(=O)N(CC23CC4CC(CC(C4)C2)C3)[C@@H]1c1ccc(CO)cc1I , according to its measured value.
Result: middle

Request: Textbook exercise: identify the category of the compound given here, COc1ccc([Si](C)(C)[C@@H]2[C@@H](CC(=O)N(CCO)Cc3ccccc3)O[C@]3(C(=O)N(Cc4cccc(N5CCOC5=O)c4)c4ccccc43)[C@H]2C)cc1 , according to its measured value.
Result: low

Request: Textbook exercise: identify the category of the compound given here, Cc1ccc(S[C@]2(C(=O)NCC(F)(F)F)CC(=O)N(Cc3ccccc3)[C@@H]2c2ccc(CO)cc2I)cc1 , according to its measured value.
Result: middle

Request: Textbook exercise: identify the category of the compound given here, C=C(C(=O)CC[C@@H](OC(C)=O)c1ccc(CO)o1)C(C)C , according to its measured value.
Result: middle

Request: Textbook exercise: identify the category of the compound given here, COc1ccc(-c2nc(-c3ccccc3)c3c(c2C)CO[Si]3(C(C)C)C(C)C)cn1 , according to its measured value.
Result: low

Request: Textbook exercise: identify the category of the compound given here, NCCCCCCNC(=O)[C@@H]1C[C@@H]2C(=O)N[C@@H](CCCCN)C(=O)N2[C@@H]1c1cccc(OCCO)c1 , according to its measured value.
Result: high

Request: Textbook exercise: identify the category of the compound given here, CC(C)(C)N1CC=CC23O[C@@H]4C=CCCOC(=O)C4[C@H]2C(=O)N(CCO)[C@@H]3C1=O (stereo not given in full) , according to its measured value.
Result: middle

Request: Textbook exercise: identify the category of the compound given here, O=C1O[C@@H](c2ccccc2)[C@@H](c2ccccc2)N2[C@@H](c3ccccc3OCCO)[C@]3(C(=O)Nc4ccc(C#CCCO)cc43)[C@@H](C(=O)N3CCCCCCC3)[C@H]12 , according to its measured value.
Result: high

Request: Textbook exercise: identify the category of the compound given here, CCOC(=O)[C@H]1[C@@H]2C(=O)N3CCC[C@H]3[C@H](O[Si](C(C)C)(C(C)C)C(C)C)[C@H]2C=C2CCN(S(=O)(=O)c3ccc(C)cc3)C[C@H]21 , according to its measured value.
Result: low

Request: Textbook exercise: identify the category of the compound given here, CC(C)C(=C=CC[C@H](O)c1ccc(OCCO)cc1)C[C@H](O)c1ccccn1 , according to its measured value.
Result: low

Request: Textbook exercise: identify the category of the compound given here, CN1C(=O)C2C=CC(C(O)c3cccc(O)c3)N(Nc3ccccc3)C2C1=O (stereo not given) , according to its measured value.
Result: middle

Request: Textbook exercise: identify the category of the compound given here, O=C1O[C@@H](c2ccccc2)[C@@H](c2ccccc2)N2[C@@H](c3ccc(OCCO)cc3)[C@]3(C(=O)Nc4ccccc43)[C@@H](C(=O)O)[C@H]12 , according to its measured value.
Result: high

Request: Textbook exercise: identify the category of the compound given here, CC=CC(O)C1C=CC2C(=O)N(c3ccccc3)C(=O)C2N1Nc1ccccc1F (stereo not given) , according to its measured value.
Result: high

----------
Experiment: small-molecule microarray binders of probe aDKK1, primary screen, biochemical, biotinylated probe, 635/667 nm fluorescence (AID 1099);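 also: score merges 667nm spot fluorescence with signal to noise across triplicate slides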
Settings: higher = more signal
Endpoint: composite z-score

Lookup result for C=CCN1Cc2ccccc2[C@H]2OC(c3ccc(OCCCO)cc3)=N[C@@]2(CC=C)C1=O ; measured composite z-score: 0.406

Lookup result for O=C1O[C@H](c2ccccc2)[C@H](c2ccccc2)N2[C@H]1[C@@H](C(=O)N1CCN(c3ncccn3)CC1)[C@]1(C(=O)Nc3ccc(C#CC4(O)CCCCCC4)cc31)[C@H]2c1ccc(OCCO)cc1 ; measured composite z-score: 0.695

Lookup result for CC(C)OC(=O)C=C1C[C@@H](c2ccc(C(F)(F)F)cc2)O[C@@H](c2ccc(C(F)(F)F)cc2)O1 ; measured composite z-score: 0.164

Lookup result for COC1OC[C@]2(C)[C@H]3C4=C(CN2C(=O)OC(C)(C)C)[C@H](C)C(CO)C(CO)C4CC[C@@H]13 (stereo partly drawn) ; measured composite z-score: 1.39

Lookup result for C=CCN1C(=O)[C@@]2(O[C@@H](CCn3cc([C@H](O)c4ccccc4)nn3)[C@H]([Si](C)(C)c3ccc(OC)cc3)[C@H]2C)c2cc(N3CCC3=O)ccc21 ; measured composite z-score: 0.0289

Lookup result for O=C(NCCCCCNC(=O)/C(Cc1ccccc1)=N/O)OCc1ccccc1 ; measured composite z-score: -0.314

Lookup result for COc1ccc(C(O)C2C=CC3C(=O)N(c4ccccc4)C(=O)C3N2Nc2ccc([N+](=O)[O-])cc2)cc1 (stereo not drawn) ; measured composite z-score: 1.37

Lookup result for COc1ccc([Si](C)(C)[C@H]2[C@H](CC(=O)N(CCO)Cc3ccccc3)O[C@@]3(C(=O)N(Cc4cccc(N5CCOC5=O)c4)c4ccccc43)[C@@H]2C)cc1 ; measured composite z-score: -0.21

Lookup result for CN(C)CCCNC(=O)[C@@]1(c2ccc([N+](=O)[O-])cc2)CC(=O)N(CC23CC4CC(CC(C4)C2)C3)[C@@H]1c1ccc(CO)cc1I ; measured composite z-score: -0.0761

Lookup result for COc1cc2c(cc1OC)CN(C(=O)[C@@H]1[C@H]3C(=O)O[C@H](c4ccccc4)[C@H](c4ccccc4)N3[C@H](c3ccc(OCCO)cc3)[C@@]13C(=O)Nc1ccccc13)CC2 ; measured composite z-score: 0.0269

Lookup result for CCCCCCc1nc(C2CC2)cc2c1[Si](C(C)C)(C(C)C)OC2 ; measured composite z-score: -0.226

Lookup result for O=C(NCC(F)(F)F)[C@@H]1c2ccccc2C(=O)N(Cc2ccccc2C(F)(F)F)[C@H]1c1ccc(CO)cc1 ; measured composite z-score: 0.757

Lookup result for C=C[C@@H](OC)[C@H](OC(=O)Nc1ccc(SC)cc1)c1ccc(O)c(F)c1 ; measured composite z-score: -0.0849

Lookup result for C[N+](C)(C)CCCC[C@@H]1NC(=O)[C@H]2C[C@@H](C(=O)NCCCCCCN)[C@@H](c3ccc(O)cc3)N2C1=O ; measured composite z-score: 0.608

Lookup result for COC(=O)Cn1c(C(=O)N(C)C)cc2c1C[C@H]1CN(C(=O)c3ccccc3)[C@@](Cc3ccc(F)cc3)(C(=O)OC)[C@@H]21 ; measured composite z-score: 0.903

Lookup result for Cc1ccc(S[C@]2(C(=O)NCC(F)(F)F)CC(=O)N(C3CCCCC3)[C@@H]2c2ccc(CO)cc2I)cc1 ; measured composite z-score: 0.119

Lookup result for [N-]=[N+]=Nc1ccccc1C[C@]1(C(=O)N2CCOCC2)N=C(c2ccc(OCCCO)cc2)O[C@H]1c1ccccc1 ; measured composite z-score: 1.45

Lookup result for COC(=O)[C@@]1(Cc2ccccc2N=[N+]=[N-])N=C(c2ccc(OCCCO)cc2)O[C@H]1c1ccccc1N=[N+]=[N-] ; measured composite z-score: 0.793

Lookup result for O=C1OCCC=C[C@H]2OC34C=CCN(Cn5nnc6ccccc65)C(=O)[C@H]3N(CCCCCCO)C(=O)[C@@H]4C12 (stereo partly drawn) ; measured composite z-score: -0.0278

Lookup result for COc1ccc(CCN2C(=O)[C@@]3(Cc4ccccc42)c2ccccc2C(=O)N(Cc2ccccc2OC)[C@H]3c2ccc(CO)cc2)cc1 ; measured composite z-score: 0.533

Lookup result for O=C(NCC(F)(F)F)[C@@H]1c2ccccc2C(=O)N(Cc2cc(F)cc(C(F)(F)F)c2)[C@H]1c1ccc(CO)cc1 ; measured composite z-score: -0.0632

Lookup result for COCCOC(=O)N1C(=O)[C@@]2(c3cc(C#CC4=CCCCC4)ccc31)[C@H](C(=O)N1CCCCCCC1)[C@H]1C(=O)O[C@H](c3ccccc3)[C@H](c3ccccc3)N1[C@@H]2c1ccc(O)cc1 ; measured composite z-score: 0.923

Lookup result for COc1ccc([Si](C)(C)[C@@H]2[C@@H](CCO)O[C@]3(C(=O)N(Cc4ccc(N5CCCCC5=O)cc4)c4ccccc43)[C@H]2C)cc1 ; measured composite z-score: -0.128

Lookup result for CO[C@]12C=C(Br)[C@@H](C[C@@H]1c1cccc(C)c1)[C@@]1(CO1)C2=O ; measured composite z-score: -0.306

Lookup result for CCOC(=O)C[C@H]1[C@H](OC(=O)c2ccc(C(=O)c3ccccc3)cc2)[C@@H](NC(=O)Cc2ccc(OC)cc2)c2cc(OCCCO)ccc2N1C(=O)c1ccccc1 ; measured composite z-score: 0.0467

Lookup result for CCC(CC)C(O)C1C=CC2C(=O)N(c3ccccc3)C(=O)C2N1Nc1ccc(C(C)C)cc1 (stereo not drawn) ; measured composite z-score: 0.789

Lookup result for C=CCNC(=O)[C@H]1[C@@H]2C(=O)O[C@@H](c3ccccc3)[C@@H](c3ccccc3)N2[C@@H](c2ccc(O)cc2)[C@]12C(=O)N(C(=O)OCCOC)c1ccccc12 ; measured composite z-score: -0.689

Lookup result for COc1ccc([Si](C)(C)[C@@H]2[C@@H](CC(=O)N(CCO)Cc3ccccc3)O[C@]3(C(=O)N(Cc4cccc(N5CCOC5=O)c4)c4ccccc43)[C@H]2C)cc1 ; measured composite z-score: -0.178
